The entries below come with measured %Inh values attached.
System: PRKCH
condition label: concentration: 1 μM, replicates: in singlicate; n = 1;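 also: KINOMEscan kinase panel screen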
Return type: number; implicit unit %.

// worked examples, %Inh included
Cn1cc(-c2ccc3c(c2)CCN3C(=O)Cc2cccc(F)c2)c2c(N)ncnc21 [GSK2603358] = 24
Cc1ccc(F)c(C(=O)Nc2cccc(-c3nn4ccccc4c3-c3ccnc(Nc4cccc(F)c4)n3)c2)c1F [GSK361061] = 25
CC(=O)N1CCN(c2ccc(Nc3nccc(-c4sc(C(C)C)nc4-c4cccc(NS(=O)(=O)c5cccc(Cl)c5)c4)n3)cn2)CC1 [GSK1660437] = 19

Which %Inh is reported for this molecule? COCCOCCOc1cc2ncc3c4ccc(C#N)cc4[nH]c3c2cc1OC 0

Which %Inh is reported for this molecule? COC(=O)Nc1nc2cc(Oc3ccc(NC(=O)Nc4cc(C(F)(F)F)ccc4F)cn3)ccc2[nH]1.Cl.Cl [GW681170] 14

Which %Inh is reported for this molecule? Cc1cccc(Nc2nc(N[C@H]3CCNC3)ncc2C(N)=O)c1.Cl [GSK2197149] 41

Which %Inh is reported for this molecule? c1ccc(-c2n[nH]cc2Nc2ccnc3ccccc23)nc1 [GW694077] 0

Which %Inh is reported for this molecule? Nc1n[nH]c2cnc(-c3ccccc3)cc12 [SB-642124] 38

Which %Inh is reported for this molecule? CN(C)S(=O)(=O)c1cc(-c2ccc3nccc(-c4cccc(S(N)(=O)=O)c4)c3c2)cnc1N [GSK1669921] 29

Which %Inh is reported for this molecule? CC(C)(C)c1ccc2nccc(Nc3cccc(O)c3)c2c1 [GW856795] 0

Which %Inh is reported for this molecule? Nc1ncc(-c2cccnc2)c2scc(-c3ccc4c(c3)CCN4C(=O)Cc3ccccc3)c12 [GSK683281] 33

Which %Inh is reported for this molecule? O=C(Nc1cccc(-c2nn3ccccc3c2-c2ccnc(Nc3cccc(C(F)(F)F)c3)n2)c1)c1c(F)cccc1F [GSK292658] 17

Which %Inh is reported for this molecule? COc1cc(Nc2nccc(N3CCC(NC(=O)Nc4cccc(C(C)=O)c4)C3)n2)cc(OC)c1OC (stereo not drawn) [GSK1379753] 0

Which %Inh is reported for this molecule? COc1cccc(NC(=O)NC2CCN(c3ccnc(Nc4cc(OC)c(OC)c(OC)c4)n3)C2)c1 (stereo not drawn) [GSK1379763] 0

Which %Inh is reported for this molecule? COc1cc(Nc2nccc(N3CCC(NC(=O)c4cc5ccccc5s4)C3)n2)cc(OC)c1OC (stereo not drawn) [GSK1379760] 5

Which %Inh is reported for this molecule? Clc1ccc(-c2nn3ncccc3c2-c2ccnc(Nc3ccc4c(c3)OCCO4)n2)cc1 [GW829116] 0

Which %Inh is reported for this molecule? Fc1ccc(-c2ncn(C3CCNCC3)c2-c2ccnc(Oc3ccc(-c4ccccc4)cc3)n2)cc1 [SB-245391] 0

Which %Inh is reported for this molecule? COc1cc(Nc2ncc3c(C)nc(-c4cc5ccccc5[nH]4)n3n2)cc(OC)c1OC [GW869516] 0

----------
The entries below come with measured %Inh values attached.
System: LYN
condition label: concentration: 1 μM, replicates: in singlicate; n = 1
Return type: number; implicit unit %.

// worked examples, %Inh included
O=C(Nc1cccc(-c2nn3ncccc3c2-c2ccnc(Nc3ccccc3)n2)c1)c1c(F)cccc1F = 99.4
Cc1ccc(C(=O)N2CC[C@@H](O)C2)cc1-n1c(C)cc(OCc2ccc(F)cc2F)c(Br)c1=O = 74
CCc1ccc(-c2ccc3c(c2)-c2c(cnn2C)S(=O)(=O)N3C)cc1 = 0

Note: attention shifts to another entry.
Which %Inh is reported for this compound? O=c1[nH]cc(-c2ccc(N3CCOCC3)cc2)c2sc(-c3cn[nH]c3)cc12 0

Just for reference, paper PMC5540273 is where these values come from.
